Test protocol: cytotoxic assay, nuclei count (Hoechst, HCS)
Type: cell-based
Run parameters: human, MCF7 cells (breast carcinoma); 48 h treatment; read-out: Cytotoxic studies IC50 MCF7
Listed below: IC50 at 48 h values for each entry.

Please report the measured IC50 at 48 h for COC(=O)c1ccc(-n2cc(COc3cccc4cnc(Nc5cccc(Cl)c5)nc34)nn2)c([N+](=O)[O-])c1 [12f]
> 25 µM

Please report the measured IC50 at 48 h for N[C@H]1CC[C@H](n2cc(COc3cccc4cnc(Nc5cc(Cl)cc(Cl)c5)nc34)nn2)CC1 [19b]
3 µM

Please report the measured IC50 at 48 h for N[C@H]1CC[C@H](n2cc(COc3cccc4cnc(Nc5cccc(Cl)c5)nc34)nn2)CC1 [19a]
11 µM

Further cases:
Please report the measured IC50 at 48 h for CC(C)(C)OC(=O)N[C@H]1CC[C@H](n2cc(COc3cccc4cnc(Nc5cc(Cl)cc(Cl)c5)nc34)nn2)CC1 [18b]
> 25 µM

Please report the measured IC50 at 48 h for O=[N+]([O-])c1cc(O)ccc1-n1cc(COc2cccc3cnc(Nc4cccc(Cl)c4)nc23)nn1 [12c]
9 µM

Please report the measured IC50 at 48 h for O=[N+]([O-])c1cc(CO)ccc1-n1cc(COc2cccc3cnc(Nc4cccc(Cl)c4)nc23)nn1 [12e]
4 µM

Please report the measured IC50 at 48 h for Cc1ccc(-n2cc(COc3cccc4cnc(Nc5cc(Cl)cc(Cl)c5)nc34)nn2)c([N+](=O)[O-])c1 [7b]
24 µM

Please report the measured IC50 at 48 h for N[C@H]1CC[C@@H](n2cc(COc3cccc4cnc(Nc5cccc(Cl)c5)nc34)nn2)CC1 [16a]
8 µM

The origin of these recorded values is paper PMC9571063.
